- Test system: 883617-216-R-J1-PDC tumor spheroids, viability;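 further: spheroids exposed to agents for 7 days before the viability read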
- assay_explanation: Anticancer human tumor 883617-216-R-J1-PDC patient-derived bladder carcinoma cell line growth inhibition [PI3K]
- assay_conditions: second compound 1 µM; first compound 0.1 µM; hits give low values; spheroids with HUVEC and MSC
Items are presented alongside their recorded viability, T/C.

Examples from the recorded data:
{"molecule": "Cn1ncc(Cl)c1-c1cc(C(=O)NC(CN)Cc2cccc(F)c2)sc1Cl (centres undefined) + COc1c(OCCCN2CCOCC2)ccc2c3n(c(=NC(=O)c4cnc(N)nc4)nc12)CCN3", "experimental_readout": "viability, T/C", "data_value": "3.32%"}
{"molecule": "Cn1nccc1Nc1nccc(-c2ccn(C(CO)c3ccc(Cl)c(F)c3)c(=O)c2)n1 (centres undefined) + COc1c(OCCCN2CCOCC2)ccc2c3n(c(=NC(=O)c4cnc(N)nc4)nc12)CCN3", "experimental_readout": "viability, T/C", "data_value": "1.46%"}
{"molecule": "CC1(C)CCC(Nc2ncc(C(F)(F)F)c(-c3c[nH]c4c(P(C)(C)=O)c(C#N)ccc34)n2)CN1 (centres undefined) + COc1c(OCCCN2CCOCC2)ccc2c3n(c(=NC(=O)c4cnc(N)nc4)nc12)CCN3", "experimental_readout": "viability, T/C", "data_value": "1.83%"}

Which measured viability, T/C value corresponds to Cn1ncnc1[C@H]1c2n[nH]c(=O)c3cc(F)cc(c23)N[C@@H]1c1ccc(F)cc1 + CC(Nc1ncnc2nc[nH]c12)c1cc2cccc(Cl)c2c(=O)n1-c1ccccc1 ?
57.5%
